test: A quantitative high throughput screen for small molecules that induce DNA re-replication in SW480 colon adenocarcinoma cells.; also: nearly all actives have a fitted effect of over 55% in size; conditions: Hoechst DNA content imaging, 48 h; series mostly up to 46.1 µM
The whole screen tested about 340,000 compounds, of which about 6,200 (1.8%) were called active. Another 10% or so got no clear call; they are omitted. Calls follow the shape of the dose curve; as a rule, active = well fitted activation curve with a large enough effect; inconclusive = small, poorly fitted or top-dose-only effect; inactive = no such curve, though single readings can be large or run the other way. Only a selection was taken, and actives are over-represented in it overall.
Choose the fitting class; nothing outside y (active), n (inactive) is accepted.

As a guide, the following entries are already answered.
compound	class-label
O=C1NC(=O)C(CCc2ccccc2)(c2ccccc2)N1 (stereo unspecified)	n
Nc1nnc2c(C(F)(F)F)nc3ccccc3n12	n
Cc1[nH]c2ccc(C(=O)N3CCN(C)CC3)cc2c1C	n

Asked: I would be grateful if you could indicate the recorded call for Cc1ccc(Nc2c(O)nc[nH]c2=O)cc1C .
Given back: n

Asked: Next record, please: O=C(COC(=O)c1cccnc1Cl)Nc1ccc(S(=O)(=O)N2CCOCC2)cc1
Given back: n

Asked: Next record, please: CCCSc1ccc([C@H]2N[C@@](Cc3ccccc3)(C(=O)OC)[C@H]3C(=O)N(C)C(=O)[C@@H]23)cc1
Given back: n

Asked: Next record, please: CCOc1ccc(S(=O)(=O)Nc2ccc(OC)nc2)cc1
Given back: n

Asked: Next record, please: COc1ccccc1N1CCN(C(=O)c2ccc(Cl)c(S(=O)(=O)N3CCCC3)c2)CC1
Given back: n

Asked: Next record, please: FC(F)(F)c1nnc2c3ccccc3c(Cl)nn12
Given back: y

Asked: Next record, please: CC(=O)OCC(=O)C1(O)CCC2C3CC(C)C4=CC(=O)CCC4(C)C3C(O)CC21C (stereo unspecified)
Given back: n

Asked: Next record, please: CNC(=S)NNC(=O)c1sccc1OCc1ccccc1
Given back: n

---

assay: A quantitative high throughput screen for small molecules that induce DNA re-replication in SW480 colon adenocarcinoma cells.; also: nearly all actives have a fitted effect of over 55% in size; as to re-replication activation: % of control where 0% means no effect; conditions: Hoechst DNA content imaging, 48 h; series mostly up to 46.1 µM
About 6,200 (1.8%) of roughly 340,000 compounds were called active. Roughly 10% stayed inconclusive and do not appear here. Only a selection was taken, and actives are over-represented in it overall.
property-measured: re-replication activation

Examples with answers:
compound	property-measured	reported-value
C=CCCC(=O)N1C[C@H]2CON(C)[C@H]2C[C@H]1c1cccc(Nc2ccccc2)c1	re-replication activation	-6.4% [at 9.22 µM] (inactive)
CN(C(=O)c1cccc(NC(=O)Cc2cccc(NC(=O)C3CCCN(C(=O)C4CC4)C3)c2)c1)C1CCC1 (stereo not drawn)	re-replication activation	3.52% [at 9.22 µM] (inactive)
COC(=O)CSC1=C(C#N)C(c2ccccc2OC)C(C(=O)OC)C(=O)N1 (stereo not drawn)	re-replication activation	0.322% [at 9.22 µM] (inactive)
Cc1ccc(S(=O)(=O)N2[C@@H](c3cccc4ccccc34)C(C(=O)O)=C[C@H]2C(C)(C)C)cc1	re-replication activation	-25.3% [at 9.22 µM] (inactive)
CN(C(=O)c1ccc(NC(=O)Cc2cccc(NC(=O)C3CCN(C(=O)c4ccccc4)CC3)c2)cc1)C1CC1	re-replication activation	-22.3% [at 9.22 µM] (inactive)

For the 3 compounds below, give their re-replication activation values.
1. CCCCN(C)C(=O)C1CCN(Cc2ccccn2)CC1
2. O=C(Cc1ccc(NC(=O)C2CCCN(C(=O)C3CCCCC3)C2)cc1)Nc1cccc(C(=O)N2CCCCC2)c1 (stereo not drawn)
3. COc1ccc(S(=O)(=O)N(C)C[C@H]2Oc3ccc(NS(=O)(=O)c4cccs4)cc3CC(=O)N([C@H](C)CO)C[C@H]2C)cc1

Given back:
1. -0.529% [at 9.22 µM] (inactive)
2. 5.52% [at 9.22 µM] (inactive)
3. -2.46% [at 9.22 µM] (inactive)

Origin of values: PubChem BioAssay AID624297
